target: Dihydroorotate dehydrogenase (quinone), mitochondrial (Plasmodium falciparum (isolate 3D7)); assay: inhibition of P. falciparum DHODH – biochemical, C-terminal His tag, absorbance 600 nm, primary screen (AID 1175); details: PfDHODH enzyme, DCIP absorbance 600 nm; higher = more signal, called active from +8 up or from −8 down;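 also: recombinant parasite enzyme with a five histidine tag at its C terminus; test concentration not given here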
observation type: composite z-score
Note: the reply should be a number with no unit written.

Examples with answers:
O=C1C[C@@](C(=O)O)(c2ccc([N+](=O)[O-])cc2)[C@@H](c2ccc(CO)cc2)N1CC12CC3CC(CC(C3)C1)C2 : -3.13
CCCCCCC#C[Si](O[C@H](c1ccccc1)c1cn(Cc2cccc(Cl)c2)nn1)(C(C)C)C(C)C : -0.0872
CN(C)CCCCNC(=O)[C@H]1C[C@H]2C(=O)N[C@@H](CCCC[N+](C)(C)C)C(=O)N2[C@H]1c1cccc(OCCO)c1 : -0.119
C=C(COC)C(=O)CC[C@H](OC(=O)c1ccccc1-c1ccccc1C(=O)O)c1ccc(OCCO)cc1 : -0.575
C=CC[C@]1(C(=O)N(C)C)N=C(c2ccc(OCCCO)cc2)O[C@H]1c1ccccc1 : -0.588
CCCCC(=C=CC[C@H](O)c1cccc(OCCO)c1)C[C@H](O)COCc1ccccc1 : -1.06
COCC(=C=CC[C@@H](O)c1ccccc1OCCO)C[C@@H](O)COCc1ccccc1 : -1.47

// field: composite z-score; key: CCCC=C(CCC)[C@@H](NS(=O)(=O)CC)c1ccccc1 ; value = -0.317

###

assay: calcein-AM signal in unstimulated myeloma cells – cell-based, calcein-AM fluorescence, 48 h, PK04 Diversity Set, profiling panel (AID 1166); settings: RPMI8226 myeloma viability, higher = more signal;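 also: cells grown under basal conditions without added stimulus; test concentration not given here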
observation type: z-score
Form: value (number only, do not type unit).

Please review the following examples before continuing.
NC(=O)NCC#Cc1ccc2c(c1)[C@]1(C(=O)N2)[C@H](c2ccc(O)cc2)N2[C@H](c3ccccc3)[C@H](c3ccccc3)OC(=O)[C@H]2[C@@H]1C(N)=O : 1.23
COc1ccc([Si](C)(C)[C@@H]2[C@@H](CC(=O)N(CCO)Cc3ccccc3)O[C@]3(C(=O)N(C)c4c(Br)cc(C)cc43)[C@H]2C)cc1 : -4.38
C=C(C)[C@@H]1CC=C(C(O)C2C=CC3C(=O)N(C4CCCCC4)C(=O)C3N2Nc2ccc(OC)cc2)CC1 (some centres not stated) : -0.0663
C=CC[C@]1(C(=O)N2CCOCC2)N=C(c2ccc(OCCCO)cc2)O[C@H]1c1ccccc1CN=[N+]=[N-] : -1.62
CCCCC(O)C1C=CC2C(=O)N(Cc3ccccc3)C(=O)C2N1n1cnnc1 (configuration not stated) : -0.458
O=C1O[C@H](c2ccccc2)[C@H](c2ccccc2)N2[C@H]1[C@@H](C(=O)N1CCCCCCC1)[C@]1(C(=O)Nc3ccc(C#CCCO)cc31)[C@H]2c1ccc(OCCO)cc1 : -0.105
CCOC(=O)C[C@H]1[C@H](OC(=O)c2ccccc2-c2ccccc2)[C@@H](NC(=O)c2ccccc2)c2cc(OCCCO)ccc2N1C(=O)Cc1ccc(OC)cc1 : 0.206
C=CCOC(=O)[C@@H]1[C@H]2C(=O)O[C@H](c3ccccc3)[C@H](c3ccccc3)N2[C@H](c2ccc(OCCOC(=O)[C@@H]3C[C@@H]4C(=O)N[C@@H](CCCCNC(C)=O)C(=O)N4[C@@H]3c3ccc(O)cc3)cc2)[C@@]12C(=O)Nc1ccc(I)cc12 : 0.165

The recorded z-score for entry C=CCN1C(=O)[C@@]2(O[C@@H](CCn3cc([C@H](O)c4ccccc4)nn3)[C@H]([Si](C)(C)c3ccc(OC)cc3)[C@H]2C)c2cc(NC(=O)c3ccc(OC)cc3)ccc21 equals -1.69

Consider CC(C)(C)OC(=O)CC[C@@]1(C(=O)N2CCCCC2)N=C(c2ccc(OCCCO)cc2)O[C@@H]1c1ccccc1CN=[N+]=[N-] . Its measured z-score is -0.624

The reported value for COC(=O)C(CC#Cc1ccc2c(c1)[C@]1(C(=O)N2)[C@H](c2ccc(O)cc2)N2[C@H](c3ccccc3)[C@H](c3ccccc3)OC(=O)[C@H]2[C@@H]1C(N)=O)C(=O)OC in terms of z-score is 0.728

z-score reported for this molecule Cc1ccc(S[C@]2(C(=O)O)CC(=O)N(Cc3ccccc3C(F)(F)F)[C@@H]2c2ccc(CO)cc2)cc1 : 0.393

###

test system: Plasmodium falciparum Sir2 (PF13_0152, Sir2A); test: Plasmodium falciparum Sir2A binding compounds – biochemical, small-molecule microarray, 635 nm fluorescence, primary screen (AID 1098); settings: fluorescence 635 nm, higher = more signal;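 also: score merges spot fluorescence intensity with its signal-to-noise ratio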
Listing: composite z-score of selected compounds
Lab note: write the figure by itself, no unit.

For orientation, consider the following solved cases.
[N-]=[N+]=NCc1ccccc1C[C@]1(C(=O)NCCN2CCOCC2)COC(c2ccc(OCCCO)cc2)=N1 : 1.49
COc1ccc([Si](C)(C)[C@@H]2[C@@H](CCO)O[C@]3(C(=O)N(Cc4cccc(N5C(=O)COc6ccccc65)c4)c4ccccc43)[C@H]2C)cc1 : 1.35
C=C[C@H](C)[C@H](OC(=O)Nc1ccc(SC)cc1)c1ccc(O)c2ccccc12 : 0.454
O=C1O[C@H](c2ccccc2)[C@H](c2ccccc2)N2[C@H]1[C@@H](C(=O)N1CCN(c3ncccn3)CC1)[C@]1(C(=O)Nc3ccc(C#CCCO)cc31)[C@H]2c1ccc(OCCO)cc1 : 1.66
Cc1ccc(S[C@]2(C(=O)NCc3ccccc3)CC(=O)N(C3Cc4ccccc4C3)[C@@H]2c2ccc(CO)cc2I)cc1 : 0.976

Briefly, composite z-score measured for C=C[C@@H](O)[C@H]1CC(c2ccccc2)=NO1 : 1.46

Sample O=C1C[C@@](C(=O)NCc2ccccc2)(c2ccc([N+](=O)[O-])cc2)[C@@H](c2ccc(CO)cc2I)N1C1CCCCC1 ; composite z-score observed: 0.838

###

# reported composite z-score; entries follow
assay: probe aDKK1 binding to arrayed compounds – biochemical, biotinylated probe, 635/667 nm fluorescence, primary screen (AID 1099); settings: small-molecule microarray, higher = more signal;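 also: score merges 667nm spot fluorescence with signal to noise across triplicate slides; reference of the scale not given here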

O=C(Nc1cc(Br)ccc1C(=O)NCc1cccc(O)c1)c1ccccc1 : 0.429
C=CCOC(=O)[C@H]1[C@@H]2C(=O)O[C@@H](c3ccccc3)[C@@H](c3ccccc3)N2[C@@H](c2ccc(OCCOC(=O)[C@H]3C[C@H]4C(=O)N[C@@H](CCCCN(C)C)C(=O)N4[C@H]3c3ccc(O)cc3)cc2)[C@]12C(=O)Nc1ccccc12 : 0.638
O=C1O[C@@H](c2ccccc2)[C@@H](c2ccccc2)N2[C@@H](c3ccc(O)cc3)[C@]3(C(=O)Nc4ccc(C#CC5(O)CCCCCC5)cc43)[C@@H](C(=O)N3CCN(c4ncccn4)CC3)[C@H]12 : -0.125
O=C1C2C=CC(C(O)c3cccc4ccccc34)N(Nc3ccccc3)C2C(=O)N1c1ccccc1 (centres undefined) : 1.33
COC(=O)[C@]1(Cc2ccccc2CN=[N+]=[N-])N=C(c2ccc(OCCCO)cc2)O[C@@H]1c1ccccc1 : -0.0032

Quick note, composite z-score for Cc1ccc(S[C@]2(C(=O)O)CC(=O)N(Cc3ccccc3C(F)(F)F)[C@@H]2c2ccc(CO)cc2)cc1 landed at -0.0885

Lab note: CC(C)(C)OC(=O)CC[C@@]1(C(=O)N2CCCCC2)N=C(c2ccc(OCCCO)cc2)O[C@@H]1c1ccccc1N=[N+]=[N-] gave composite z-score of 0.977

The compound identified as CC(=O)NCCCC[C@@H]1NC(=O)[C@@H]2C[C@H](C(=O)NCCCC[N+](C)(C)C)[C@H](c3cccc(OCCO)c3)N2C1=O registered its composite z-score at -0.11

Consider C#CCOC(=O)N[C@H](C=CCCCC)c1ccccc1 . Its measured composite z-score is 0.326

Form field composite z-score, entry COC(=O)C(CC#Cc1ccc2c(c1)[C@]1(C(=O)N2)[C@H](c2ccc(O)cc2)N2[C@H](c3ccccc3)[C@H](c3ccccc3)OC(=O)[C@H]2[C@@H]1C(=O)O)C(=O)OC : -0.114

Reported composite z-score of COc1ccc(C#Cc2ccc3c(c2)[C@]2(C(=O)N3)[C@H](C(=O)O)[C@H]3C(=O)O[C@H](c4ccccc4)[C@H](c4ccccc4)N3[C@@H]2c2ccc(OCCO)cc2)cc1 : 0.192

// field: composite z-score; key: CN1C(=O)C2C=CC(C(O)C3CCCCC3)N(N(c3ccccc3)c3ccccc3)C2C1=O (centres undefined) ; value = 0.993

In plain terms, CC(C)(C)N1CC=CC23O[C@@H]4C=CCCOC(=O)C4[C@H]2C(=O)N(CCCO)[C@@H]3C1=O (some centres undefined) has a documented composite z-score of 1.43

composite z-score recorded for this compound, COc1ccccc1CN1C(=O)c2ccccc2[C@](Cc2ccccc2I)(C(=O)NCCN2CCOCC2)[C@@H]1c1ccc(CO)cc1 , is -0.0631

// provenance: PubChem BioAssay
